Please respond with reported log2 fold change of degron read counts for every item in the list.
Biological target: T1, CRBN, Q96SW2;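 also: pooled lentiviral library of zinc finger degron-EGFP fusions in mCherry-positive Jurkat cells, FACS-sorted after compound exposure, with degron abundance counted by next-generation sequencing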
T1 chain: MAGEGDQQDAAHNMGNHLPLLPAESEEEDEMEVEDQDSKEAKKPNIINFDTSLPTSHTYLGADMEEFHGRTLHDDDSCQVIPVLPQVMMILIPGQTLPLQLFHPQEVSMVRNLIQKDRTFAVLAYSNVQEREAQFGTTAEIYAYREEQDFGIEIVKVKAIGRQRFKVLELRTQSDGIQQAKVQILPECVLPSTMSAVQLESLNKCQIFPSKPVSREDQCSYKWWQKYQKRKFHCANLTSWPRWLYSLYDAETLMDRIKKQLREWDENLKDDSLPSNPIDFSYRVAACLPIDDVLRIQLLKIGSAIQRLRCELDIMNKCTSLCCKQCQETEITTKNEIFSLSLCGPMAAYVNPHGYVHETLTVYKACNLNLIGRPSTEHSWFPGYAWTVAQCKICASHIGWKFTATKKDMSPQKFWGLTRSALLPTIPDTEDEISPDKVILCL
Experiment: log2 fold change of degron read counts, EGFP-low vs EGFP+ sorted cells (limma voom), compound-induced degradation; higher = more compound-induced degradation of the degron-EGFP fusion; degrons are variants of IKZF1/3 zinc finger 2; compound dose not given here
Settings: Jurkat; 18 h; compound: compound 22 (5-morpholino-thalidomide)
The full ranking holds about 8,300 sequences; the median of “log2 fold change of degron read counts, EGFP-low vs EGFP+ sorted cells (limma voom), compound-induced degradation” is about -1.1, and the highest 2% start at about 3.2. The list comes from a sample in which the highest values are over-represented; it also holds close analogues and randomly drawn sequences.
I'd appreciate a reply containing only the number, no unit.

Exam item: // log2 fold change of degron read counts lookup, key: FNCEICGACFTQKGNLLRHIKL [46F_47N_49E_50I_52G_53A_54C_55F_67L_, Q9UKT9]
Marked response: 0.812

Exam item: Try FCCNVCGAPFTQKGNLLRHIKL [46F_47C_49N_50V_52G_53A_54P_55F_67L_, Q9UKT9] next.
Marked response: 0.686

Exam item: Another: FACEVCGAPFTQKGNLLRHIKL [46F_47A_49E_50V_52G_53A_54P_55F_67L_, Q9UKT9]
Marked response: 1.62

Exam item: Follow-up entry: FVCEICGRRFTQKGNLLRHIKL [46F_47V_49E_50I_52G_53R_54R_55F_67L_, Q9UKT9]
Marked response: -0.295

Exam item: One more sequence: FFCEVCGAPFTQKGNLLRHIKL [46F_47F_49E_50V_52G_53A_54P_55F_67L_, Q9UKT9]
Marked response: 3.18

Exam item: Another sequence: LDCEICGFLCTQKGNLLRHIKL [46L_47D_49E_50I_52G_53F_54L_55C_67L_, Q9UKT9]
Marked response: -1.38

Exam item: And then FFCEVCGADFTQKGNLLRHIKL [46F_47F_49E_50V_52G_53A_54D_55F_67L_, Q9UKT9] , what is it?
Marked response: 0.23

Exam item: Also check FGCEVCGAMFTQKGNLLRHIKL [46F_47G_49E_50V_52G_53A_54M_55F_67L_, Q9UKT9]
Marked response: 2.09

Exam item: Follow-up item: FECPICGHPFTQKGNLLRHIKL [46F_47E_49P_50I_52G_53H_54P_55F_67L_, Q9UKT9]
Marked response: -2.54

Exam item: Same lookup for FHCEICGACFTQKGNLLRHIKL [46F_47H_49E_50I_52G_53A_54C_55F_67L_, Q9UKT9] , please.
Marked response: 2.54

Exam item: Again, but for FCCEQCGAMFTQKGNLLRHIKL [46F_47C_49E_50Q_52G_53A_54M_55F_67L_, Q9UKT9]
Marked response: -2.03

Exam item: Ok, now FACEICGACFTQKGNLLRHIKL [46F_47A_49E_50I_52G_53A_54C_55F_67L_, Q9UKT9]
Marked response: 2.6

Exam item: Proceed to FFCEICGACFTQKGNLLRHIKL [46F_47F_49E_50I_52G_53A_54C_55F_67L_, Q9UKT9]
Marked response: 3.84

Exam item: Next sequence up: FHCEVCGAPFTQKGNLLRHIKL [46F_47H_49E_50V_52G_53A_54P_55F_67L_, Q9UKT9]
Marked response: 3.17

Exam item: Same read-out for FKCPICGASFTQKGNLLRHIKL [46F_47K_49P_50I_52G_53A_54S_55F_67L_, Q9UKT9] ?
Marked response: -0.57

Exam item: Now try FNCPICGASFTQKGNLLRHIKL [46F_47N_49P_50I_52G_53A_54S_55F_67L_, Q9UKT9] .
Marked response: 1.58

Exam item: Query FCCDICGASFTQKGNLLRHIKL [46F_47C_49D_50I_52G_53A_54S_55F_67L_, Q9UKT9] next
Marked response: 1.84

Exam item: Follow-up item: FHCPICGAYFTQKGNLLRHIKL [46F_47H_49P_50I_52G_53A_54Y_55F_67L_, Q9UKT9]
Marked response: 1.96

Cited source for all entries: the supplement of paper PMC12645437
